This collection of values is drawn from the supplement of paper PMC10567573.

B1: KCTD10 (parent)
chain: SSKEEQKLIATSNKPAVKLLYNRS

Variants of: B1
Method Description: protein stability index of a GFP-peptide fusion (GPS, HEK-293T) (PSI 1-6); higher = more stable;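 further: lentivirally expressed fusions sorted by FACS into six bins by GFP to DsRed ratio, PSI derived from sequencing read proportions per bin multiplied by bin number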
Measurement Setup: c terminus: a fixed tail appended
Think of 4 as a floor: if protein stability index stands on it or above, it is fulfilled; beneath it, not fulfilled.

{"columns": ["Alteration", "Assigned Class"],
 "data": [
  ["Y21R", "fulfilled"]
]}

Task: Decide: is the reported value of protein stability index for "E5I" equal to or greater than 4?
Result: not fulfilled

Task: # repeat for "A16F"
Result: not fulfilled

Task: # repeat for "S12E"
Result: fulfilled

Task: # repeat for "A10W"
Result: not fulfilled

Task: # repeat for "A10I"
Result: not fulfilled
